Target: stearoyl-CoA desaturase (SCD) (Mus musculus)
Construct: % Remaining SCD activity compared to DMSO control in mouse liver microsome assay; from tissue; host or cells: mouse liver microsomes
Sequence (P13516 1-355): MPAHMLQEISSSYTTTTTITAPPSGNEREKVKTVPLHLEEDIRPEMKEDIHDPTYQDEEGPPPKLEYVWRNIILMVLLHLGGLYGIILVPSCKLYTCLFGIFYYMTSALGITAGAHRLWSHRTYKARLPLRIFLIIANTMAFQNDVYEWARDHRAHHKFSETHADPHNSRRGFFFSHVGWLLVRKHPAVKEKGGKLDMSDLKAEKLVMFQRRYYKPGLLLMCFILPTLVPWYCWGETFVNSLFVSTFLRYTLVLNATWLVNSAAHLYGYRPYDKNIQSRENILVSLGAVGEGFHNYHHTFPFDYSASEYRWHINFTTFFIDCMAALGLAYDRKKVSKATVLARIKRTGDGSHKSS
Test: SCD mouse liver microsome assay (tritiated stearoyl-CoA desaturation)
Assay type: biochemical
Conditions: Table 5; % remaining SCD activity at 10 μM, mouse microsome assay
measured-endpoint: % Activity 10 μM (%)

Answered cases to consult:
So what % Activity 10 μM did CCCCCNC(=O)c1ccc(N2CCN(C(=O)c3ccccc3Br)CC2)nc1 get with stearoyl-CoA desaturase (SCD) (Mus musculus)?
1.8

O=C(NCCc1cccc(Cl)c1)c1ccc(N2CCN(C(=O)c3ccccc3C(F)(F)F)CC2)nc1 ?
1.4

Now this one: COc1ccc(Br)c(C(=O)N2CCN(c3ccc(C(=O)NCCCc4ccccc4)cn3)CC2)c1
1.01

One more compound: O=C(NCCCc1ccccc1)c1ccc(N2CCN(C(=O)c3cc(Cl)ccc3Cl)CC2)nc1
1.1

Could you do the same for CC(C)CCNC(=O)c1ccc(N2CCN(C(=O)c3ccc(Cl)cc3Cl)CC2)nc1 , please?
1.4

A: O=C(NCCc1ccccc1)c1ccc(N2CCN(C(=O)c3ccccc3Br)CC2)nc1
B: O=C(NCCCc1ccccc1)c1ccc(N2CCN(C(=O)c3ccccc3C(F)(F)F)CC2)nc1
Which is greater in % Activity 10 μM, the first item A or the second item B ? Choose, then provide that item's label.
A

----------
biological target: stearoyl-CoA desaturase (SCD) (Mus musculus); construct: % Remaining SCD activity compared to DMSO control in mouse liver microsome assay; from tissue; host or cells: mouse liver microsomes; test: SCD mouse liver microsome assay (tritiated stearoyl-CoA desaturation); assay type: biochemical; conditions: 1 uM test compound; mouse liver microsomes 100 μg, 15 min RT preincubation, 15 min RT desaturation
measured-endpoint: % Remaining SCD activity compared to DMSO control, average (%)

// lookup % Remaining SCD activity compared to DMSO control, average for CC(C)CCNC(=O)c1ccc(N2CCN(C(=O)c3ccccc3Br)CC2)nc1
5.49

P: O=C(NCCc1ccccc1)c1ccc(N2CCN(C(=O)c3ccccc3Br)CC2)nc1
Q: O=C(NCCCc1ccccc1)c1ccc(N2CCN(C(=O)c3cc(Cl)ccc3Cl)CC2)nc1
Which numeric % Remaining SCD activity compared to DMSO control, average is bigger, that of P or that of Q ? # respond with the chosen item's label
P
(P: 5.48%, Q: 3.37%)

----------
target: stearoyl-CoA desaturase (SCD) (Mus musculus, UniProt P13516); construct: % Remaining SCD activity compared to DMSO control in mouse liver microsome assay; from tissue; host or cells: mouse liver microsomes; assay: SCD mouse liver microsome assay (tritiated stearoyl-CoA desaturation); type: biochemical; conditions: Table 5; % remaining SCD activity at 10 μM, mouse microsome assay
measured-endpoint: % Activity 10 μM (%)

Would you kindly share the measured % Activity 10 μM for CCCCCCNC(=O)c1ccc(N2CCN(C(=O)c3ccccc3C(F)(F)F)CC2)nc1 [Compound X15] ?
1.2

Would you kindly repeat that for CC(C)CCNC(=O)c1ccc(N2CCN(C(=O)c3ccccc3Br)CC2)nc1 [Compound X02] ?
1.3

A: O=C(NCCc1ccccc1)c1ccc(N2CCN(C(=O)c3cc(Cl)ccc3Cl)CC2)nc1 [Compound X12]
B: Cc1ccccc1CC(=O)N1CCN(c2ccc(C(=O)NCCC(C)C)cn2)CC1 [Compound X21]
C: CC(C)CCNC(=O)c1ccc(N2CCN(C(=O)c3cccc4ccccc34)CC2)nc1 [Compound X16]
Arrange these compounds by their % Activity 10 μM, starting with the largest number. Please respond by ranking the labels in the order requested.
B, C, A
(B: 3.94%, C: 2.1%, A: 1.2%)
